# credit: patent US20160053277A1

# assay text: Shuffled variant libraries: 14CO2 capturing assay in 384-well format
# condition label: decarboxylation activity (carbon dioxide released) compared with unmutated backbone protein SEQ ID NO 133 (DDEC0201)
Task for the reader: assign each of the following molecules its reported Fold Activity.
Numbers only.

- 260 (protein, Dicamba decarboxylase variant) MAQGKVALEEHFAIPETLQDSAGFVPGDYWKELQHRLLDIQDTRLKLMDAHGIETMILSLAAPAVQAIPDRRKAIEIARRANDFLAEECAKRPDRFLAFAALPMQDPDAASEELQRCVNDLGFVGALVNGFSVEGDGQTPLYYDLPQYRPFWGEVEKLDVPFYLHPRNPLPQDSRIYDGHPWLLGPTWAFAQETAVHALRLMASGLFDEHPRLNIILGHLGEGLPYMMYRIDHRIAWVKLPPRYPAKRRFMDYFNENFHITTSGNFRTQTLIDAILEIGADRILFSTDWPFENIDHAADWFNATSIAEADRVKIGRTNAPSSVQTG: 1.5

Attention now turns to another entry.
Looking for the measured Fold Activity of 258 (protein, Dicamba decarboxylase variant) MAQGKVALEEHFAIPETLQDSAGFVPGDYWKELQHRLLDIQDTRLRLMDAHGIETMILSLAAPAVQAIPDRRKAIEIARRANDFLAEECAKRPDRFLAFAALPLQDPDAATEELQRTVNDLGFVGALVNGFSQEGDGQTPLYYDLPQYRPFWGEVEKLDVPFYLHPRNPLPQDSRIYDGHPWLLGPTWAFAQETAVHALRLMASGLFDEHPRLNIILGHMGEGLPYMMYRIDHRIAWVHEPPRYPAKRRFMDYFNENFHITTSGNFRTQTLIDAILEIGADRILFSTDWPFENIDHAADWFNATSIAEADRVKIGRTNARRLFKLDGA , can you help?
1.2
